test: Pharmacokinetics of PDS after single and multiple oral administration in AA amyloidosis patients; type: in vivo; conditions: human, plasma, Dose 400 (mg BID), Month 24 repeated oral doses, n = 3, mean
Experimental Readout: Tmax (h)
Field format: number, assumed h, no unit text.

Tell me Tmax reported for O=S(=O)([O-])CCCS(=O)(=O)[O-].[Na+].[Na+] [PDS] 1.83

###

experiment: Pharmacokinetics of single rising oral doses of PDS and food effect in healthy male subjects; type: in vivo, human; conditions: male, human, plasma, po, 200 mg, single oral 200 mg, healthy male subjects, n = 5; mean
Experimental Readout: Cmax (ng/mL)
Field format: number, assumed ng/mL, no unit text.

Tell me Cmax reported for O=S(=O)([O-])CCCS(=O)(=O)[O-].[Na+].[Na+] 164

Attribution: patent US20130296434A1
